- target_or_system: human ANT2 (Homo sapiens, UniProt P05141)
- Sequence (P05141 1-298): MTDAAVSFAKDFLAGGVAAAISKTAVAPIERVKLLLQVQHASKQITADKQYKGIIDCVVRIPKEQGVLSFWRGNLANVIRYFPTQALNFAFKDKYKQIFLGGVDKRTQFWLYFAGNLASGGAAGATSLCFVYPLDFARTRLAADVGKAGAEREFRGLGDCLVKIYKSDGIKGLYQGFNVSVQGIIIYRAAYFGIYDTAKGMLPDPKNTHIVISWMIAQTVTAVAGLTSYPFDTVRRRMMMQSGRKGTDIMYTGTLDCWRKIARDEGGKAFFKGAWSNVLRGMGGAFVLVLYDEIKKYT
- assay_comment: ADP/ATP exchange with isolated yeast mitochondria expressing hANT2
- Assay type: biochemical
attribute_measured: pIC50
On this scale, pIC50 is minus log10 of a concentration expressed in M (mol/L).

Tell me pIC50 reported for Cc1cc(C(C#N)c2ccc(Cl)cc2)c(Cl)cc1NC(=O)c1cc(I)cc(I)c1O (stereo not shown) [Closantel]
4.04

---

- target_or_system: human ANT1 (Homo sapiens, UniProt P12235)
- Sequence (P12235 whole entry): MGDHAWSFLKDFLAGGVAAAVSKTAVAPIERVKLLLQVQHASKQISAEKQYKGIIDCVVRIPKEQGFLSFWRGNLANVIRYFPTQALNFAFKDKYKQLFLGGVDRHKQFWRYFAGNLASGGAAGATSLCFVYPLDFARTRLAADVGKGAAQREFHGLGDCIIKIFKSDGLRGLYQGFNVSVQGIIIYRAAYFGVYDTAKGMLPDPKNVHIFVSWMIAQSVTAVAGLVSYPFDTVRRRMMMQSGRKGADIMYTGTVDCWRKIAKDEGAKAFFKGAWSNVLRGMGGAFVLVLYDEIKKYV
- assay_comment: ADP/ATP exchange with isolated yeast mitochondria expressing hANT1
- Type: biochemical
attribute_measured: pIC50
On this scale, pIC50 is minus log10 of a concentration expressed in M (mol/L).

Tell me pIC50 reported for Cc1cc(C(C#N)c2ccc(Cl)cc2)c(Cl)cc1NC(=O)c1cc(I)cc(I)c1O (stereo not shown) [Closantel]
4.28

---

- Test system: yeast strain expressing hANT3
- assay_comment: microbe, parasite or virus in culture
- Format: cell-based
- condition_description: Saccharomyces cerevisiae, read-out: Activity hANT3 IC50
Reported IC50 is given for each of the following compounds.

# example entries with known answers
compound	IC50
C[C@@H]1C[C@H]2CC[C@H](O2)[C@H](C)C(=O)O[C@@H](C)C[C@@H]2CC[C@@H](O2)[C@@H](C)C(=O)O[C@H](C)C[C@H]2CC[C@H](O2)[C@H](C)C(=O)O[C@@H](C)C[C@@H]2CC[C@@H](O2)[C@@H](C)C(=O)O1	4.7 µM
Cc1cc(C(C#N)c2ccc(Cl)cc2)c(Cl)cc1NC(=O)c1cc(I)cc(I)c1O (centres unmarked)	6.3 µM
CC(C)(C)c1cc(C=C(C#N)C#N)cc(C(C)(C)C)c1O	24 µM

Return reported IC50 for target or system yeast strain expressing hANT3, item O=C(Nc1cc(C(F)(F)F)cc(C(F)(F)F)c1)c1cc(Cl)ccc1O .
0.52 µM

Return reported IC50 for target or system yeast strain expressing hANT3, item CN(C)c1ccc(O)c2c1C[C@H]1C[C@H]3[C@H](N(C)C)C(O)=C(C(N)=O)C(=O)[C@@]3(O)C(O)=C1C2=O .
> 100 µM

---

- Tested on: human ANT isoforms
- assay_comment: ADP/ATP exchange in L. lactis, human ANT isoforms
- Type: biochemical
- condition_description: single-concentration test of compounds selected from the yeast growth assay
attribute_measured: inhibition of [3H]ADP uptake by L. lactis

molecule	result
Cc1cc(C(C#N)c2ccc(Cl)cc2)c(Cl)cc1NC(=O)c1cc(I)cc(I)c1O (stereo not shown)	inhibited
CC(C)c1ccc2c(c1)CC[C@H]1[C@](C)(CN)CCC[C@]21C	inhibited
O=C(O)c1ccc2cc(-c3ccc(O)c(C45CC6CC(CC(C6)C4)C5)c3)ccc2c1	inhibited

---

- Test system: yeast strain expressing hANT1
- assay_comment: microbe, parasite or virus in culture
- Assay type: cell-based
- condition_description: Saccharomyces cerevisiae, read-out: Activity hANT1 IC50
Reported pIC50 is given for each of the following compounds.
On this scale, pIC50 is minus log10 of a concentration expressed in M (mol/L).

# example entries with known answers
compound	quantitative_readout
C[C@@H]1C[C@H]2CC[C@H](O2)[C@H](C)C(=O)O[C@@H](C)C[C@@H]2CC[C@@H](O2)[C@@H](C)C(=O)O[C@H](C)C[C@H]2CC[C@H](O2)[C@H](C)C(=O)O[C@@H](C)C[C@@H]2CC[C@@H](O2)[C@@H](C)C(=O)O1	5.36
O=C(Nc1cc(C(F)(F)F)cc(C(F)(F)F)c1)c1cc(Cl)ccc1O	6.24
CC(C)(C)c1cc(C=C(C#N)C#N)cc(C(C)(C)C)c1O	4.38

Attention now turns to another entry.
Tell me pIC50 reported for Cc1cc(C(C#N)c2ccc(Cl)cc2)c(Cl)cc1NC(=O)c1cc(I)cc(I)c1O (centres unmarked)
5.33

Each recorded value in this set is attributed to paper PMC6559718.
